measured_on: Lysosomal acid glucosylceramidase (Homo sapiens, UniProt P04062)
Sequence (P04062 whole entry): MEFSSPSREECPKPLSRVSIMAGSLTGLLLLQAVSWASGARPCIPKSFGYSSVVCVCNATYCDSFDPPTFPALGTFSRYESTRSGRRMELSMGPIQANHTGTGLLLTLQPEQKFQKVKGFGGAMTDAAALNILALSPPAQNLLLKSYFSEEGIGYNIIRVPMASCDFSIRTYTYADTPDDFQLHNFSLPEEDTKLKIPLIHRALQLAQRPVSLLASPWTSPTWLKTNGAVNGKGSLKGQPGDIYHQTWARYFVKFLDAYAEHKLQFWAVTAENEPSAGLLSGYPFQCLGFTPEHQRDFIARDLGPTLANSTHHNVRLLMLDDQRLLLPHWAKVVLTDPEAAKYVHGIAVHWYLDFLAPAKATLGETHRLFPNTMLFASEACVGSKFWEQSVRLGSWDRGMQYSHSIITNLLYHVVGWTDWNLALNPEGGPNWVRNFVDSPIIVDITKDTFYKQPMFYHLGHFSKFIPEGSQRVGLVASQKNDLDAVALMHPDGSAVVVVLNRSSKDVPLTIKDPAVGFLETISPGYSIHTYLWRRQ
assay_overview: GCase IC50 Assay
run_parameters: pH 7
Measured IC50, listed per entry.

molecule: OCC1C(O)C(O)C(O)c2nc(CCc3ccccc3)cn21 (stereo unspecified)
measured_on: Lysosomal acid glucosylceramidase (Homo sapiens, UniProt P04062)
units: nM
IC50: 2.04
--
molecule: O=C(CCCc1cn2c(n1)C(O)C(O)C(O)C2CO)Nc1ccccc1 (stereo unspecified)
measured_on: Lysosomal acid glucosylceramidase (Homo sapiens, UniProt P04062)
units: nM
IC50: 7.67
--
molecule: Cc1ccc(CCCc2cn3c(n2)C(O)C(O)C(O)C3CO)cc1 (stereo unspecified)
measured_on: Lysosomal acid glucosylceramidase (Homo sapiens, UniProt P04062)
units: nM
IC50: 4.73
--
molecule: CCCCCCCCc1cn2c(n1)C(O)C(O)C(O)C2CO (stereo unspecified)
measured_on: Lysosomal acid glucosylceramidase (Homo sapiens, UniProt P04062)
units: nM
IC50: 5.05
--
molecule: OCC1C(O)C(O)C(O)c2nc(CCCc3ccc(F)cc3)cn21 (stereo unspecified)
measured_on: Lysosomal acid glucosylceramidase (Homo sapiens, UniProt P04062)
units: nM
IC50: 4.75
--
molecule: OCC1C(O)C(O)C(O)c2nc(CCCc3ccc(-c4ccccc4)cc3)cn21 (stereo unspecified)
measured_on: Lysosomal acid glucosylceramidase (Homo sapiens, UniProt P04062)
units: nM
IC50: 5.11

---

measured_on: Alpha-galactosidase (Coffea arabica, UniProt Q42656)
Sequence (Q42656 whole entry): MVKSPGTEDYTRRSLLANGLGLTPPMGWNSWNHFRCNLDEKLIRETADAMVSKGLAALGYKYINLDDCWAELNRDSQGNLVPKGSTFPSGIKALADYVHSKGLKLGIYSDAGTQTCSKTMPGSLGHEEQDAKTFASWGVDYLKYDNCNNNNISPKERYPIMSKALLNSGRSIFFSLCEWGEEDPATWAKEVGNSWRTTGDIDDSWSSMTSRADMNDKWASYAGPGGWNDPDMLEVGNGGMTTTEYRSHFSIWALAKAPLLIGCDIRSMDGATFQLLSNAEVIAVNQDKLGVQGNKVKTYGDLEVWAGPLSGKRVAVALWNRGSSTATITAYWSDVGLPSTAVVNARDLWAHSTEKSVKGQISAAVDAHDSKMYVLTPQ
pIC50: −log10 of the molar value.
Measured pIC50, listed per entry.
reported_metric: pIC50

compound: CC(C)(C)CCc1cn2c(n1)C(O)C(O)C(O)C2CO (stereo not given)
obs_value: 4.89
--
compound: OCC1C(O)C(O)C(O)c2nccn21 (stereo not given)
obs_value: 5.14
--
compound: OCC1C(O)C(O)C(O)c2nc(CCCc3ccc(C4CCCCC4)cc3)cn21 (stereo not given)
obs_value: 4.94
--
compound: OCC1C(O)C(O)C(O)c2nc(CCc3ccccc3)cn21 (stereo not given)
obs_value: 4.79
--
compound: O=C(CCCc1cn2c(n1)C(O)C(O)C(O)C2CO)Nc1ccccc1 (stereo not given)
obs_value: 5.83

---

measured_on: Lysosomal acid glucosylceramidase (Homo sapiens, UniProt P04062)
assay_overview: GCase IC50 Assay
run_parameters: pH 7
pIC50: −log10 of the molar value.
Hi, to clarify the labels: MET covers pIC50 from 8 upward, NOT MET covers anything below 8.

compound: COc1ccc(CCCc2cn3c(n2)C(O)C(O)C(O)C3CO)cc1 (stereo not given)
classification: MET
--
compound: CC(C)(C)CCc1cn2c(n1)C(O)C(O)C(O)C2CO (stereo not given)
classification: MET
--
compound: OCC1C(O)C(O)C(O)c2nccn21 (stereo not given)
classification: NOT MET

Attribution: BindingDB's records for doi:10.1002/cbic.201300197
